# Test system: MDA-MB-468
# test details: Cytotoxicity against human MDA-MB-468 cells assessed as growth inhibition at 10 uM after 48 hrs by SRB assay
# Type: functional
# condition info: MDA-MB-468, 48 h, read-out: GI
Hi, to clarify the labels: Met covers inhibition of growth at 10 µM from 9% upward, Not met covers anything below 9%.

Below are worked cases with known answers.
State whether the measured inhibition of growth at 10 µM reaches 9%, counting equality as reaching it, for Cc1nc(NC(=S)Nc2ccc(F)cc2)sc1C(=O)NN
Not met

Is reported inhibition of growth at 10 µM greater than or equal to 9% here: Cc1nc(N)sc1C(=O)NCCO
Not met

Please indicate if the recorded inhibition of growth at 10 µM for Cc1nc(NC(=O)NC2CCCCC2)sc1C(=O)NN meets or exceeds 9%.
Not met

# check: inhibition of growth at 10 µM of CCOC(=O)c1sc(NC(=O)Nc2ccccc2)nc1C is greater than or equal to 9%
Met

# next compound below
Exam item: decide whether the reported inhibition of growth at 10 µM for Cc1nc(N)sc1C(=O)Nc1ccc(F)cc1 is at least 9%.
Met

---

# Tested on: HOP-92
# test details: Cytotoxicity against human HOP92 cells assessed as growth inhibition at 10 uM after 48 hrs by SRB assay
# Type: functional
# condition info: HOP-92, 48 h, read-out: GI
endpoint name: inhibition of growth at 10 µM (%)
Only the number, expressed in %, is required.

Some solved entries appear below for comparison.
inhibition of growth at 10 µM measured on CCOC(=O)c1sc(NC(=O)c2cc(OC)c(OC)c(OC)c2)nc1C = 53.1

Entry CCOC(=O)c1sc(NC(=O)Nc2ccccc2)nc1C — recorded inhibition of growth at 10 µM = 64.2

What the record says about Cc1nc(NC(=S)Nc2ccc(F)cc2)sc1C(=O)NN : inhibition of growth at 10 µM is 33.7

More entries:
Record CCOC(=O)c1sc(NC(=O)NC2CCCCC2)nc1C . Reported inhibition of growth at 10 µM: 53.9

So, Cc1nc(N)sc1C(=O)NCCO ? Its inhibition of growth at 10 µM was 82.1

# inhibition of growth at 10 µM (molecule: Cc1nc(NC(=O)NC2CCCCC2)sc1C(=O)NN ) is 82.8

---

# System: U-251
# test details: Cytotoxicity against human U251 cells assessed as growth inhibition at 10 uM after 48 hrs by SRB assay
# Format: functional
# condition info: U-251, 48 h, read-out: GI
// reported inhibition of growth at 10 µM per item
Express your answer in %, writing the number without its unit.

// recorded inhibition of growth at 10 µM for Cc1nc(NC(=O)NC2CCCCC2)sc1C(=O)NN : 2.59

inhibition of growth at 10 µM measured on Cc1nc(NC(=S)Nc2ccc(F)cc2)sc1C(=O)NN = 5.41

Lab book: inhibition of growth at 10 µM of Cc1nc(N)sc1C(=O)Nc1ccc(F)cc1 noted as 5.77

Per the record, CCOC(=O)c1sc(NC(=O)Nc2ccccc2)nc1C has inhibition of growth at 10 µM of 9.58

---

# Tested on: UACC-62
# test details: Cytotoxicity against human UACC62 cells assessed as growth inhibition at 10 uM after 48 hrs by SRB assay
# Type: functional
# condition info: UACC-62, 48 h, read-out: GI
Let's look at some compounds and their measured inhibition of growth at 10 µM.
State just the number; it will be interpreted in %.

Sample records with inhibition of growth at 10 µM:
Given the compound Cc1nc(N)sc1C(=O)NCCO and test system UACC-62, the measured inhibition of growth at 10 µM is 7.33

Lab note: compound CCOC(=O)c1sc(NC(=O)c2cc(OC)c(OC)c(OC)c2)nc1C tested on UACC-62; recorded inhibition of growth at 10 µM was 11.5

Reported inhibition of growth at 10 µM (UACC-62) for entry CCOC(=O)c1sc(NC(=O)Nc2ccccc2)nc1C is 20

# inhibition of growth at 10 µM measured on UACC-62 for item Cc1nc(N)sc1C(=O)Nc1ccc(F)cc1 = 3.24

Observed inhibition of growth at 10 µM, UACC-62, Cc1nc(NC(=O)Nc2ccccc2)sc1C(=O)NN : 11.9

inhibition of growth at 10 µM for UACC-62 with input Cc1nc(NC(=O)NC2CCCCC2)sc1C(=O)NN equals 10.2

Reported UACC-62 inhibition of growth at 10 µM for item CCOC(=O)c1sc(NC(=O)NC2CCCCC2)nc1C was 26

// below: inhibition of growth at 10 µM requested for another compound
# Cc1nc(NC(=S)Nc2ccc(F)cc2)sc1C(=O)NN with UACC-62: inhibition of growth at 10 µM is 10.8
